- System: up to 32 different microorganisms
- PROTOCOL_DESCRIPTION: in vitro antibacterial activity (MIC), agar dilution on Brain Heart Infusion (BHI) agar with Steers replicator
- Format: cell-based
- APPLIED_CONDITIONS: organism code QQ; unit assumed
RESULT_TYPE: MIC

CCC1OC(=O)C(C)C(=O)C(C)C(OC2OC(C)CC(N(C)C)C2O)C(C)(OCC=Cc2ccc3nccnc3c2)CC(C)C(=O)C(C)C2NC(=O)OC12C (centres unmarked) [Example 207, R is —CH2CH═CH-(6-quinoxalinyl)]: 25 µg/mL

As a next step, examine the compound that follows.
What MIC value was documented for this compound, CC[C@H]1OC(=O)[C@H](C)C(=O)[C@H](C)[C@@H](O[C@@H]2O[C@H](C)C[C@H](N(C)C)[C@H]2O)[C@@](C)(OCC=NOCc2cccc3ccccc23)C[C@@H](C)C(=O)[C@H](C)[C@H]2NC(=O)O[C@@]21C [Example 235] ? > 100 µg/mL
